Test system: A549 NSCLC
Assay: NCI tumour cell line growth inhibition, 48 h
quantity_measured: TGI (µM)
# output: bare number, implied unit µM

Q) Retrieve TGI measured for "O=C(C[P+](c1ccccc1)(c1ccccc1)c1ccccc1)C[P+](c1ccccc1)(c1ccccc1)c1ccccc1" and print it.
A) 3.04

Q) Supply reported TGI belonging to this molecule: "CCN(CC)CCn1[nH]c2c3ccc(=O)cc3sc3c(NCCN)ccc1c32"
A) 14.5

Q) Provide measured TGI value, entry: "c1ccc(P(=C2c3ccccc3-c3ccccc32)(c2ccccc2)c2ccccc2)cc1"
A) 29.6

Q) Input "COc1ccc(N(/C=C/C(=O)C(F)(F)F)CC(=O)c2ccc(Cl)cc2)cc1" , output reported TGI.
A) 87.8

====

Tested on: MCF7 breast
Assay: NCI tumour cell line growth inhibition, 48 h
Where a SMILES comes first, the peptide text is derived from it. The star is where a group is joined. Cbz = O=C(OCc1ccccc1)*; NHNH2 = NN*
Kindly state TGI for each of the entries shown.

Q) Give a short answer stating reported TGI for "C[C@@H]1COCCN1c1cc(C2([S@@](C)(=N)=O)CC2)nc(-c2ccnc3[nH]ccc23)n1" .
A) > 100 µM

Q) Note TGI for the compound shown: "CN1CCN(Cc2ccc3c(NNC(=O)c4ccccc4)nc4cc(F)ccc4n23)CC1"
A) 11.8 µM

Q) Please report the measured TGI for "COc1cc(/C=C/c2cc(/C=C/c3ccc(O)c(OC)c3)n(C(=O)Nc3ccc(Cl)cc3)n2)ccc1O"
A) 3.39 µM

Q) Using the record for "O=c1cc(-c2ccccc2)oc2cc(OC/C(=N/O)c3ccc(F)cc3)ccc12" , state its measured TGI.
A) 31 µM

Q) Return TGI (reported value) for this compound: "CC1C2=C(CCCC2=O)N(c2ccc(Cl)cc2)C2=C1C(=O)CCC2"
A) > 100 µM

Q) Supply recorded TGI for "Cc1ccc2oc3c(c(Br)c(Br)n3C)c(=O)c2c1" here.
A) > 100 µM

Q) Provide TGI value for the following compound: O=C(c1ccccc1)n1c(-c2ccccc2)cs/c1=N\S(=O)(=O)c1ccc(N2N=C3c4ccccc4CC3C2c2cccs2)cc1 (stereo not drawn)
A) > 100 µM

Q) For the compound CCOC(=O)CCC(NC(=O)OCc1ccccc1)C(=O)NC(CCC(=O)OCC)C(=O)NN (stereo not drawn) (Cbz-Glu(OEt)-Glu(OEt)-NHNH2; configuration not given here) , give its reported TGI.
A) > 100 µM

====

Would you kindly list log10 TGI for each of these molecules?
System: PC-3 prostate
Experiment: NCI tumour cell line growth inhibition, 48 h
Annotation: log10 of TGI, µM basis.

Q) For the molecule "Cc1ccc(NCCN(C)C)c2c(=O)c3ccccc3sc12" , give its reported log10 TGI.
A) 0.71

Q) Dear colleague, please send me the reported log10 TGI for "O=C(Nc1ccccc1O)c1ccc(NS(=O)(=O)c2cccc3cccnc23)cc1" when you can.
A) 0.92

Q) Query log10 TGI for "COc1ccccc1NS(=O)(=O)c1ccc2oc(SC(C)C)nc2c1"
A) 1.66

Q) Quick one: give measured log10 TGI for "C=CCN(c1cc(OC)c2[nH]c(C(=O)OCC)c(C)c2c1[N+](=O)[O-])S(C)(=O)=O"
A) 1.58

Q) Identify measured log10 TGI associated with c1ccc([As]=[As]c2ccccc2)cc1 (stereo not drawn)
A) 0.42

Q) Dear colleague, please send me the reported log10 TGI for "N#Cc1c(-c2ccc(Cl)cc2)c2c(N=Nc3c(O)ccc4ccccc34)[nH]nc2[nH]c1=O" when you can.
A) 0.31

Q) Write down log10 TGI measured for item O=C(/C=C/C12c3ccccc3C(c3ccccc31)C1C(=O)NC(=O)C12)c1ccc(Cl)cc1 (stereo not drawn)
A) 0.44

Q) Return reported log10 TGI. Input molecule: "c1ccc2c(c1)ccn1ccc3c4ccccc4nc-3c21"
A) 0.22

Q) Answer with the recorded log10 TGI of "Nc1ccc(-c2nc3ccccc3s2)cc1C#Cc1ccccc1" only.
A) 1.66

Q) Please report log10 TGI for the following molecule: CN(C)c1cccc2c1C(=O)C=CC21CCc2ccc(N(C)C)c3c(N(C)C)ccc1c23 (stereo not drawn)
A) 1.44

Q) Tell me its log10 TGI given CC1CN=C(c2cccc(-c3nc(-c4cccc(C5=NCC(C)N5)c4)nc(N(C)C)n3)c2)N1 (stereo not drawn) as the entry.
A) 0.52

Q) Please indicate log10 TGI recorded for "O=C(O)c1ccc(Nc2nc3cc(C(F)(F)F)ccc3n3cccc23)cc1"
A) 1.97

Q) Quickly give me recorded log10 TGI for "Cc1ccc(-c2nc([P+](c3ccccc3)(c3ccccc3)c3ccccc3)c(Nc3ccccc3)o2)cc1"
A) 0.26

Q) Fill in reported log10 TGI for this entry: "CSc1c(CC(=O)Nc2ccc(Cl)cc2)n(Cc2ccccc2)c2ccccc12"
A) 1.44

Q) Using the record for "COc1cc(/C=C/c2cc(/C=C/c3ccc(O)c(OC)c3)n(C(=O)Nc3ccc(Cl)cc3)n2)ccc1O" , state its measured log10 TGI.
A) 0.76

Q) For the molecule "COC(=O)/C=C\C(C#N)(C#N)N=Cc1sccc1C" , give its measured log10 TGI value.
A) 1.30

Q) Look up log10 TGI of COC(=O)[C@@H]1CC(C(CN)c2cn(C(=O)OC(C)(C)C)c3ccccc23)C(=O)N1C(=O)OC(C)(C)C (stereo partly drawn) and report it.
A) 1.90

Q) Note log10 TGI for the molecule shown: COc1ccc(C2C=C(c3ccc(Cl)cc3)N=C3SC=C(C)N32)c(Br)c1 (stereo not drawn)
A) 1.64
